Tested on: SK-MEL-5
Experiment description: NCI tumour cell line growth inhibition, 48 h
Active and inactive are the calls of the source. No stated cut-off is given here; in the data, active = GI50 up to about 1.1 µM and inactive = higher.
# GI50 annotations

Use these answered entries as a reference point.
compound=COc1ccccc1NC(=S)Nc1cc(C)cc(C)n1 observed_property=GI50 assay_result="> 100 µM (inactive)"
compound=COCn1cnc2c(=O)n(-c3ccc(C)cc3)c(=S)n(-c3ccc(C)cc3)c21 observed_property=GI50 assay_result="> 100 µM (inactive)"
compound=CC1(C)CNC(c2ccc3c(c2)Cc2cc(C4=NC(C)(C)CN4)ccc2-3)=N1 observed_property=GI50 assay_result="60.7 µM (inactive)"

[Q] Please give the measured GI50 for this compound: `Oc1ccc2ccccc2c1/N=N/c1cccc2ccccc12`
[A] > 100 µM (inactive)

[Q] Please give the measured GI50 for this compound: CCC(=O)C(C)C(=O)C(=O)C(=O)OC (stereo not given)
[A] > 100 µM (inactive)

---

System: HCC 2998
Experiment description: NCI tumour cell line growth inhibition, 48 h
Calls of active or inactive are those of the source. Cut-off read from the data, not from the text of the source: active = GI50 up to about 1.1 µM and inactive = higher.
# GI50 annotations

Use these answered entries as a reference point.
molecule="Cc1cccc(C)c1NC(=O)C(=O)C(C#N)c1ccccc1 (stereo unspecified)" assay_result="> 100 µM (inactive)"
molecule="COC(=O)C1=C(C(=O)OC)C2(C)C=CC1O2 (stereo unspecified)" assay_result="16.2 µM (inactive)"
molecule=COc1ccc(-c2cc(=O)c3ccccc3[nH]2)c(OC)c1 assay_result="> 10 µM (inactive)"
molecule=CCN(CC)CCn1ccc(=O)c2cc3c(=O)ccn(CCN(CC)CC)c3c(C)c21 assay_result="1.44 µM (inactive)"
molecule=COC(=O)CCSC(=O)Nc1ccc(/N=N/c2ccccc2)cc1 assay_result="23.6 µM (inactive)"

Now turn to the next molecule.
[Q] Please give the measured GI50 for this molecule: C=C1C[C@@H]2C[C@@H](C)CC(O)[C@]2(CCCN)C1O (stereo partly specified)
[A] > 100 µM (inactive)

---

System: Hs-578T
Experiment description: NCI tumour cell line growth inhibition, 48 h
The source made the active and inactive calls. Cut-off read from the data, not from the text of the source: active = GI50 up to about 1.1 µM and inactive = higher. Residues, ends and D or L forms follow the SMILES beside them. *: point of attachment. Boc = CC(C)(C)OC(=O)*; OBn = c1ccc(CO*)cc1
Log the outcome using a class from active, inactive

Previously resolved entries follow.
compound=CCOC(=O)/C=C(\C(=O)OCC)n1cc(C)c(=O)n(Cc2cn(CCCCOC(C)=O)nn2)c1=O group=inactive
compound=Cc1ccc(S(=O)(=O)c2c(O)c3ccc(O)c(C)c3oc2=O)cc1 group=inactive
compound=CC(=O)OC[C@@H]1[C@H]2CC[C@]3(C)[C@@H](OC(C)=O)CC[C@H]3[C@@H]2CC[C@H]1C1(C)SCCS1 group=inactive
compound=O=C(O)c1nc(-c2ccccc2)[nH]c1C(=O)O group=inactive
compound=CC(C)(C)OC(=O)n1c(Cl)c(C=O)c2ccccc21 group=inactive
compound="COC(=O)c1cc2c(cc1CC1Cc3cc4c(cc3C1=O)CCC4)CCC2 (stereo not drawn)" group=inactive
compound="CC(C)(CCCCC(C)(C)NCC1COc2ccccc2O1)NCC1COc2ccccc2O1 (stereo not drawn)" group=inactive
compound="COc1ccccc1C1SCC(=O)N1c1ccc(-c2ccc(-n3c(-c4ccccc4)nc4ccccc4c3=O)cc2)cc1 (stereo not drawn)" group=inactive

[Q] Please let me know the test result on file for `O=C1CNc2cc(N3CCCCC3)ccc2N1` .
[A] inactive

[Q] Please let me know the test result on file for `Oc1ccc2ccccc2c1/N=N/c1cccc2ccccc12` .
[A] inactive

[Q] Please let me know the test result on file for `O=C1/C(=C/c2ccccc2)CN(C(=O)CCN2CCOCC2)C/C1=C\c1ccccc1` .
[A] inactive

[Q] Please let me know the test result on file for `CN(c1ccc(Cl)cc1)S(=O)(=O)c1ccccc1` .
[A] inactive

[Q] Please let me know the test result on file for `O=C(NN1CCCCC1)c1cc2cc(CCl)ccc2oc1=O` .
[A] inactive

[Q] Please let me know the test result on file for `OC1(c2ccccc2)CCN(Cc2c[nH]c3ccccc23)CC1` .
[A] inactive

[Q] Please let me know the test result on file for CC[C@]12C=CCN3CC[C@@]4(c5cc(Br)c(OC)cc5N(C)[C@H]4[C@@](O)(C(=O)NC(Cc4c[nH]c5ccccc45)C(=O)OC)[C@@H]1O)[C@@H]32 (stereo partly drawn) .
[A] inactive

[Q] Please let me know the test result on file for CC(C)C(NC(=O)CNC(=O)C1CCCN1C(=O)C(NC(=O)OC(C)(C)C)C(C)C)C(=O)NCC(=O)OCc1ccccc1 (stereo not drawn) (Boc-VPGVG-OBn; configuration not given here) .
[A] inactive

---

Tested on: U-251
Experiment description: NCI tumour cell line growth inhibition, 48 h
Calls of active or inactive are those of the source. No stated cut-off is given here; in the data, active = GI50 up to about 1.1 µM and inactive = higher.
Log the outcome using a class from label 1 = active, label 0 = inactive

Previously resolved entries follow.
compound="CNC1=C(C)C(=O)C2=C(C1=O)C(COC(N)=O)C1(OC)C3NC3CN21 (stereo not given)" group="label 1"
compound=CN(CCCNC(=O)c1nn(-c2ccccc2)c2c1Cc1ccccc1-2)CCCNC(=O)c1nn(-c2ccccc2)c2c1Cc1ccccc1-2 group="label 0"
compound=C[N+]1(CCCCN2c3ccccc3Sc3cc(N=[N+]=[N-])ccc32)CCN(C(=O)CCNC(=O)Cc2ccc(C(=O)c3ccccc3)cc2)CC1 group="label 0"
compound=O=C(CCCn1ccnc1[N+](=O)[O-])NCCn1cncc1[N+](=O)[O-] group="label 0"

[Q] Please let me know the test result on file for CCCCN1CCC(O)(c2cc(C(=O)O)[nH]c2-c2cc(C)no2)C1=O (stereo not given) .
[A] label 0

[Q] Please let me know the test result on file for `Brc1ccc(/N=N/N2CCCC2)cc1` .
[A] label 0

[Q] Please let me know the test result on file for `CSc1c(C#N)c(N)nc2c(/N=N\c3ccc(Br)cc3)c(N)nn12` .
[A] label 0

[Q] Please let me know the test result on file for `Cc1n[nH]/c(=N\S(=O)(=O)c2ccc(/N=N/c3c(O)c(C(=O)O)cc4ccccc34)cc2)s1` .
[A] label 0

[Q] Please let me know the test result on file for `O=C(O)C1(C(=O)O)CCN(S(=O)(=O)c2ccccc2)CC1` .
[A] label 0

[Q] Please let me know the test result on file for `CCc1n[nH]c(=O)n1-c1ccc2ccccc2c1` .
[A] label 0

---

System: ACHN
Experiment description: NCI tumour cell line growth inhibition, 48 h
Calls of active or inactive are those of the source. Rule as the data show it: active = GI50 up to about 1.1 µM and inactive = higher.
Observed property: GI50

Use these answered entries as a reference point.
compound=CC1(C)N=C(N)N=C(N)N1c1ccc(OCC(=O)Nc2cccc(S(=O)(=O)F)c2)c(Cl)c1 observed_property=GI50 assay_result="30 µM (inactive)"
compound=CSc1cc(-c2cc3ccccc3o2)oc(=O)c1C#N observed_property=GI50 assay_result="> 100 µM (inactive)"
compound="O=C(C(=O)N1CC2C=CC1CC2)c1c[nH]c2ccccc12 (centres undefined)" observed_property=GI50 assay_result="> 100 µM (inactive)"

[Q] So what GI50 did `O=[N+]([O-])c1ccc2c(c1)c(OCc1ccccc1)nn2Cc1ccccc1` get with ACHN?
[A] 43.8 µM (inactive)

[Q] So what GI50 did C=C1C(=O)OC2CC(C)C3(O)CCC(=O)C3(C)CC12 (centres undefined) get with ACHN?
[A] 17.5 µM (inactive)

[Q] So what GI50 did `C[C@H]1CN[C@@H]2[C@@H](C)[C@H]3[C@@H](C[C@H]4[C@@H]5CC[C@H]6C[C@@H](N)CC[C@]6(C)[C@H]5CC[C@]34C)O[C@@]2(O)C1` get with ACHN?
[A] 2.65 µM (inactive)

[Q] So what GI50 did `Nn1c(CCCCCCCCc2nnc(COc3c(O)ccc4ccccc34)n2N)nnc1COc1c(O)ccc2ccccc12` get with ACHN?
[A] > 100 µM (inactive)

[Q] So what GI50 did CCOP(=O)(OCC)C1C(=O)O[C@H]2CCCC[C@@H]12 (some centres undefined) get with ACHN?
[A] > 100 µM (inactive)

[Q] So what GI50 did `CC(=O)OC/C=C(/C=C/CNC1CCCCC1)OC(C)=O` get with ACHN?
[A] 16.4 µM (inactive)

---

Test system: SK-MEL-2
Experiment description: NCI tumour cell line growth inhibition, 48 h
The source made the active and inactive calls. Rule as the data show it: active = GI50 up to about 1.1 µM and inactive = higher.
Log the outcome using a class from y (active), n (inactive)

Previously resolved entries follow.
compound=O=c1c2cc(Br)ccc2oc2ccc(Br)cc12 target_of_assay=SK-MEL-2 group=n
compound="CC1=C(C(=O)OCCc2ccc([N+](=O)[O-])cc2)C(c2cccc([N+](=O)[O-])c2)C(C(=O)OC(C)C)=C(C)N1 (stereo not given)" target_of_assay=SK-MEL-2 group=n
compound="CNC1C(O)C(NC)C2OC3(O)C(=O)CC(C)OC3OC2C1O (stereo not given)" target_of_assay=SK-MEL-2 group=n
compound=CN(C)CCn1c(=O)c2ccc(NCCNCCO)c3c(=O)c4cc(O)ccc4n(c1=O)c23 target_of_assay=SK-MEL-2 group=n
compound=C/C(=N\NS(=O)(=O)c1ccccc1)c1ccccc1 target_of_assay=SK-MEL-2 group=n
compound=CN1CCN(c2ccc3[nH]c(-c4ccc5[nH]c(-c6ccc(N(C)CCCl)cc6)nc5c4)nc3c2)CC1 target_of_assay=SK-MEL-2 group=y
compound="N#CCC(=O)N/N=C1/C(=O)NC(=O)C(=O)C1c1nc2ccccc2s1 (stereo not given)" target_of_assay=SK-MEL-2 group=n
compound=Nn1c(CCCCCCCCc2nnc(COc3c(O)ccc4ccccc34)n2N)nnc1COc1c(O)ccc2ccccc12 target_of_assay=SK-MEL-2 group=n
compound=O=C1C(=O)c2ccccc2C=C1[N+](=O)[O-] target_of_assay=SK-MEL-2 group=n

Would you kindly look at the next entry?
[Q] Please let me know the test result on file for O=C(O)C(C1NCCS1)N1C(=O)c2ccccc2C1=O (stereo not given) .
[A] n

Data provenance: ChEMBL document CHEMBL1201862
